Answer each item with its documented EC50.
tested on: human recombinant CB1 (Homo sapiens, UniProt P21554)
Construct: purchased Perkin-Elmer; host or cells: HEK293
Sequence (P21554 whole entry): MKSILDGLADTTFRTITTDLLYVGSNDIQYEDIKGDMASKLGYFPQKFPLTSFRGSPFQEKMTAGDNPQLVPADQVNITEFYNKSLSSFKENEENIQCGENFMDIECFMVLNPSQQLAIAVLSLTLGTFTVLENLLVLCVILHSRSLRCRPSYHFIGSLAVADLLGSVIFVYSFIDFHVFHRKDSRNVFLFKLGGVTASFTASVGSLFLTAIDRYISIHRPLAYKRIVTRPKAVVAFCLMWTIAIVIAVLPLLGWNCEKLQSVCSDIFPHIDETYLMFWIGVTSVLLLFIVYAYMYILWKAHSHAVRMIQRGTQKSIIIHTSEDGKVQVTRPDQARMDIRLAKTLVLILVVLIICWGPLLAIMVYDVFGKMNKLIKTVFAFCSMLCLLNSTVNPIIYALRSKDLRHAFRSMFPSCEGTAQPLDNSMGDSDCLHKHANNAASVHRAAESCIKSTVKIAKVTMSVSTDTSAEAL
experimental details: CB1R radioligand binding, membranes from HEK293 cells over-expressing human recombinant CB1
Procedure: Flavonoid compounds of general formula (I) above were evaluated for their ability to activate Cannabinoid Receptor 1 (CBLR) and Cannabinoid Receptor 2 (CB2R). CB1R experiments were performed using membranes from HEK293 cells over-expressing human recombinant CB1, as described by the manufacturer (Perkin-Elmer) and using [3H]CP-55,490 as the radioligand. Data of active compounds are expressed in Ki (mM) and are means±SEM of n=3 determinations. […]
Answers are plain numbers, in µM.

Sample answers from the record:
compound: CC(C)=CCc1c(O)cc(O)c2c1O[C@H](c1ccc(O)cc1)CC2=O [Example 2, 4′,5,7-trihydroxy-8-prenylflavanone]
EC50 / µM: 4.6
//
compound: COc1cc(O)c2c(c1)O[C@H](c1ccc(O)cc1)CC2=O [Example 5, 5,4′-dihydroxy-7-methoxyflavanone]
EC50 / µM: 3.8
//
compound: COc1cc(O)c2c(c1)O[C@H](c1ccccc1)CC2=O [Example 4, 5-hydroxy-7-methoxyflavanone]
EC50 / µM: 0.8

// next item, EC50 requested
Just so you know, measured EC50 for `COc1cc(O)c(CC=C(C)C)c2c1C(=O)C[C@@H](c1ccc(O)cc1)O2` came out at 7.5

---

tested on: human recombinant CB2 (Homo sapiens)
Construct: purchased Perkin-Elmer; host or cells: HEK293
Sequence (P34972 whole entry): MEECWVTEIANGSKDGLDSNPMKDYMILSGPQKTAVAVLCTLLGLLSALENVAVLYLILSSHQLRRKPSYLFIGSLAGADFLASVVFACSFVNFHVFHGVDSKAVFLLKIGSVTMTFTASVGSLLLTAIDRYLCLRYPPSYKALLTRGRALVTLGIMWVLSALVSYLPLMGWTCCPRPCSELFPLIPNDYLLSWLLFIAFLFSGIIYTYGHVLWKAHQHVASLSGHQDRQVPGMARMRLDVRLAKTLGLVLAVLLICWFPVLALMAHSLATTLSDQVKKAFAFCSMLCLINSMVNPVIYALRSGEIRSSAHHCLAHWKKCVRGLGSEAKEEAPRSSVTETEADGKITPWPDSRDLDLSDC
experimental details: CB2R radioligand binding, membranes from HEK293 cells over-expressing human recombinant CB2
pEC50: −log10 of the molar value.
Can you tell me pEC50 for the items I'm about to list?

molecule: CC(C)=CCc1c(O)cc(O)c2c1O[C@H](c1ccc(O)cc1)CC2=O [Example 2, 4′,5,7-trihydroxy-8-prenylflavanone]
tested on: human recombinant CB2 (Homo sapiens)
measurement kind: pEC50
val: < 4.60
--
molecule: COc1cc(O)c2c(c1)O[C@H](c1ccc(O)cc1)CC2=O [Example 5, 5,4′-dihydroxy-7-methoxyflavanone]
tested on: human recombinant CB2 (Homo sapiens)
measurement kind: pEC50
val: < 4.60
--
molecule: COc1cc(O)c(CC=C(C)C)c2c1C(=O)C[C@@H](c1ccc(O)cc1)O2
tested on: human recombinant CB2 (Homo sapiens)
measurement kind: pEC50
val: < 4.60

pEC50 recorded for this molecule, COc1cc(O)c2c(c1)O[C@H](c1ccccc1)CC2=O [Example 4, 5-hydroxy-7-methoxyflavanone] , is 5.04

---

tested on: human recombinant CB2 (Homo sapiens)
Construct: purchased Perkin-Elmer; host or cells: HEK293
experimental details: CB2R radioligand binding, membranes from HEK293 cells over-expressing human recombinant CB2
assay conditions: HEK293 membranes, [3H]CP-55,495 radioligand, means of n=3; read-out: CB2R Activity
measurement kind: EC50 (µM)
Numbers only, in µM.

So for O=C1C[C@@H](c2ccccc2)Oc2cc(O)cc(O)c21 [Example 3, 5,7-dihydroxyflavanone] , the logged EC50 turned out to be 15.5

---

tested on: human recombinant CB1 (Homo sapiens)
Construct: purchased Perkin-Elmer; host or cells: HEK293
experimental details: CB1R radioligand binding, membranes from HEK293 cells over-expressing human recombinant CB1
assay conditions: HEK293 membranes, [3H]CP-55,490 radioligand, means of n=3; read-out: CB1R Activity
measurement kind: EC50

Notebook: O=C1C[C@@H](c2ccccc2)Oc2cc(O)cc(O)c21 [Example 3, 5,7-dihydroxyflavanone] , EC50 read as > 25 µM
